Test system: Arabidopsis thaliana BioDA variant enzymes (Arabidopsis thaliana, UniProt B0F481, F348C)
Construct: with the predicted N-terminal mitochondrial transit peptide removed; 6xHis-tag (N); thrombin cleavage site (N)
Sequence (B0F481 24-833 F348C): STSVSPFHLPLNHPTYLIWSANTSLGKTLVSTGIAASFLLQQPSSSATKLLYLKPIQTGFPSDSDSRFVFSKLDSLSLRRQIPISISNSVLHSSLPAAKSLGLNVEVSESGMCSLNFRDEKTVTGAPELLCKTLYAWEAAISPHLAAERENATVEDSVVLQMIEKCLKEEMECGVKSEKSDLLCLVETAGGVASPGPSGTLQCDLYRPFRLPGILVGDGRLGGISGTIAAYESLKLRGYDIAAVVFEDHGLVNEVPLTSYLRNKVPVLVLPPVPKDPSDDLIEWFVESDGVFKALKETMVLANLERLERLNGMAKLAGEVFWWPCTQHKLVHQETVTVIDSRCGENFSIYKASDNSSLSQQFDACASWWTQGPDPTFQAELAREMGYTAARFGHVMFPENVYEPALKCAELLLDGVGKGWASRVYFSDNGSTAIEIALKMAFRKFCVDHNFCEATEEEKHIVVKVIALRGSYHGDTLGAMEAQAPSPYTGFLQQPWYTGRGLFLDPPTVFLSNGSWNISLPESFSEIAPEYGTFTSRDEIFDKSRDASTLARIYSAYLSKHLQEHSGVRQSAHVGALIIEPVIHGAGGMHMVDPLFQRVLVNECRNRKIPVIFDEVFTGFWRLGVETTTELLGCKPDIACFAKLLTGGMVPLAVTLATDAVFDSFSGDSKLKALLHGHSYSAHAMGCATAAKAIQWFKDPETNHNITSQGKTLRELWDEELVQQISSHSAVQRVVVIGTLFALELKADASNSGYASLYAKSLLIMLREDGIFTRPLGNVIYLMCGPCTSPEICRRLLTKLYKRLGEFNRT
Test method notes: biochemical
Parameter measured: IC50 (µM)
Number only, in µM; omit the unit.

[in] Report measured IC50; entry is CCn1c(Cn2ccc(C(F)(F)F)n2)cc(=O)c(C(=O)O)c1-c1ccc(Cl)c(Cl)c1 [Compound L]
[out] 77.6

###

Test system: Arabidopsis thaliana BioDA variant enzymes (Arabidopsis thaliana, UniProt B0F481)
Construct: with the predicted N-terminal mitochondrial transit peptide removed; 6xHis-tag (N); thrombin cleavage site (N); made in house; host or cells: E. coli BL21 (DE3) bioA
Test method notes: biochemical
Parameter measured: pIC50
The quantity pIC50 is defined as the negative base-10 logarithm of the molar concentration.

Compound	pIC50
O=C(O)CC1CCC(=O)N1Cc1cccc(F)c1F (centres unmarked)	4.05

[in] Report measured pIC50; entry is O=C(O)CC1CCC(=O)N1Cc1ccc(F)c(F)c1F (centres unmarked)
[out] 4.60

###

Test system: Arabidopsis thaliana BioDA variant enzymes (Arabidopsis thaliana, UniProt B0F481, P421L)
Construct: with the predicted N-terminal mitochondrial transit peptide removed; 6xHis-tag (N); thrombin cleavage site (N)
Sequence (B0F481 24-833 P421L): as the sequence (B0F481 24-833 F348C) above, with C325F, P398L counted along it
Test method notes: biochemical
Parameter measured: pIC50
The quantity pIC50 is defined as the negative base-10 logarithm of the molar concentration.

[in] Report measured pIC50; entry is CCn1c(Cn2ccc(C(F)(F)F)n2)cc(=O)c(C(=O)O)c1-c1ccc(Cl)c(Cl)c1
[out] 6.16

###

Test system: Arabidopsis thaliana BioDA variant enzymes (Arabidopsis thaliana)
Construct: with the predicted N-terminal mitochondrial transit peptide removed; 6xHis-tag (N); thrombin cleavage site (N); made in house; host or cells: E. coli BL21 (DE3) bioA
Test method notes: biochemical
Experimental setup: WT Arabidopsis thaliana BioDA (SEQ ID NO 294); read-out: IC50
This section presents molecules with their documented pIC50 values.
The quantity pIC50 is defined as the negative base-10 logarithm of the molar concentration.

[in] Report measured pIC50; entry is CC(O)C(N)CCCCC(=O)O.Cl (centres unmarked)
[out] 5.55

[in] Report measured pIC50; entry is CCn1c(Cn2ccc(C(F)(F)F)n2)cc(=O)c(C(=O)O)c1-c1ccc(Cl)c(Cl)c1
[out] 6.84

###

Test system: Arabidopsis thaliana BioDA variant enzymes (Arabidopsis thaliana, UniProt B0F481, C388D)
Construct: with the predicted N-terminal mitochondrial transit peptide removed; 6xHis-tag (N); thrombin cleavage site (N)
Sequence (B0F481 24-833 C388D): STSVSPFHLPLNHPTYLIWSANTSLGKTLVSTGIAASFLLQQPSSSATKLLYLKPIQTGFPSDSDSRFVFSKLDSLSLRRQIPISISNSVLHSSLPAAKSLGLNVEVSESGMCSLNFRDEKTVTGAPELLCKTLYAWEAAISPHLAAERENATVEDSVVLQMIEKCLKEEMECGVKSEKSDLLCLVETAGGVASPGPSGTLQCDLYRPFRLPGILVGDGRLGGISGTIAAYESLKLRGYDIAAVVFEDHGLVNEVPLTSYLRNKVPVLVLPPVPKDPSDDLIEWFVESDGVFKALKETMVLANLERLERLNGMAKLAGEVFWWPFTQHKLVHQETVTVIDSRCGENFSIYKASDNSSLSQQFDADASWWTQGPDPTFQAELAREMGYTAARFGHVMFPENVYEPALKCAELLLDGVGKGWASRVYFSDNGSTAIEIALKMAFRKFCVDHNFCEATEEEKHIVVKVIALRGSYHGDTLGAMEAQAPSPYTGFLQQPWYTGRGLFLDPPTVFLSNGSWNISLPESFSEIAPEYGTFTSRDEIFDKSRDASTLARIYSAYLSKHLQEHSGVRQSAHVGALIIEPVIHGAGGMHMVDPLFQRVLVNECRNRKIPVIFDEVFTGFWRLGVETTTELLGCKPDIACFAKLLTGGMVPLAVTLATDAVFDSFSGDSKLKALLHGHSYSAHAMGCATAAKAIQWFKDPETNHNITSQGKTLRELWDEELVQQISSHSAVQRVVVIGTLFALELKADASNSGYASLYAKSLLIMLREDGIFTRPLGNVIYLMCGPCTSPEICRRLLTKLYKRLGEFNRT
Test method notes: biochemical
Procedure: These plasmids were then expressed in E. coli BL21 (DE3) bioA with 50 μg/mL kanamycin and 25 μg/mL chloramphenicol selection. Overnight cultures grown at 37° C. were used to inoculate 8×500 mL AIM in shake flasks at a ratio of 1:100. […] For IC50 calculations, appropriate dose responses of compounds L, M, B, K and G were used. Calculated percentage inhibitions were then input into GraphPad Prism 7 and IC50s calculated using the non-linear regression (vs. normalised response) equation.
Parameter measured: IC50 (µM)
Number only, in µM; omit the unit.

Compound	Parameter measured	Measured
CCn1c(Cn2ccc(C(F)(F)F)n2)cc(=O)c(C(=O)O)c1-c1ccc(Cl)c(Cl)c1 [Compound L]	IC50	100
O=C(O)CC1CCC(=O)N1Cc1cccc(F)c1F (stereo not shown) [Compound G]	IC50	361
O=C(O)CC1CCC(=O)N1Cc1ccc(F)c(F)c1F (stereo not shown) [Compound K]	IC50	386

Below: the item to evaluate.
[in] Report measured IC50; entry is CC(O)C(N)CCCCC(=O)O.Cl (stereo not shown) [Compound B]
[out] 29.2
